- Test system: BT-549
- assayText: normalised response (% of control), CellTiter-Glo; higher = more viable cells (100 = DMSO, 0 = benzethonium chloride kill control)
- experimentalParameters: incubation time: 72 h
observedProperty: normalised response (%)
Numeric only. Scale: %

# lookup: C[C@]12O[C@H](C[C@]1(O)CO)n1c3ccccc3c3c4c(c5c6ccccc6n2c5c31)CNC4=O [Lestaurtinib] (1 nM) on BT-549, normalised response = 97.3

# lookup: Nc1cccc2c1CN(C1CCC(=O)NC1=O)C2=O (stereo not drawn) [Lenalidomide] (1000 nM) on BT-549, normalised response = 97.6

# lookup: C[C@]12O[C@H](C[C@]1(O)CO)n1c3ccccc3c3c4c(c5c6ccccc6n2c5c31)CNC4=O [Lestaurtinib] (0.1 nM) on BT-549, normalised response = 98.4

# lookup: O=C(CCBr)N1CCN(C(=O)CCBr)CC1 [Pipobroman] (1 nM) on BT-549, normalised response = 105

# lookup: c1cc(CN2CCCNCCNCCCNCC2)ccc1CN1CCCNCCNCCCNCC1 [Plerixafor] (10 nM) on BT-549, normalised response = 99.6

# lookup: CC/C(=C(\c1ccc(O)cc1)c1ccc(OCCN(C)C)cc1)c1ccccc1 [4-hydroxytamoxifen] (1000 nM) on BT-549, normalised response = 93.6

# lookup: COc1nc(N)nc2c1ncn2[C@@H]1O[C@H](CO)[C@@H](O)[C@@H]1O [Nelarabine] (1 nM) on BT-549, normalised response = 102

# lookup: COc1ccc(-c2cc3c(C)nc(N)nc3n([C@H]3CC[C@H](OCCO)CC3)c2=O)cn1 (1000 nM) on BT-549, normalised response = 17.8

Value source: the supplement of paper PMC4862054
